assay: physchem
MEASUREMENT_NAME: chromatographic logD

>  <MOLECULE>
COc1cc2c(c(OC)c1OC)-c1ccc(OC)c(=O)cc1[C@@H](NC(C)=O)CC2

>  <chromatographic logD>
0.9

$$$$
>  <MOLECULE>
Cc1ccc(O)c([C@H](CCN(C(C)C)C(C)C)c2ccccc2)c1

>  <chromatographic logD>
1.04

$$$$

Query: Any idea what its chromatographic logD is? The molecule is CCC(C)n1ncn(-c2ccc(N3CCN(c4ccc(OCC5COC(Cn6cncn6)(c6ccc(Cl)cc6Cl)O5)cc4)CC3)cc2)c1=O (stereo not given)
Result: 5.79

Query: Any idea what its chromatographic logD is? The molecule is CCN(CC)CCCC(C)Nc1c2ccc(Cl)cc2nc2ccc(OC)cc12 (stereo not given)
Result: 1.1

Query: Any idea what its chromatographic logD is? The molecule is CCOC(=O)C1=C(C)NC(C)=C(C(=O)OC)C1c1cccc(Cl)c1Cl (stereo not given)
Result: 4.52
